tested on: CCRIS mutagenicity, Ames/micronucleus/aberration tests; test: CCRIS mutagenicity studies; settings: Test System: AMES SALMONELLA TYPHIMURIUM; Strain/Indicator: TA97; Metabolic Activation: NONE; Method: STANDARD PLATE
Active and inactive are the calls of the source. No rule for the calls is given here.
Would you mind answering with one of these outcomes? active, inactive

Worked examples, 2 compounds total:
smilesNotation: Cc1cc(=O)n(-c2ccccc2)n1C
classAssignment: inactive

smilesNotation: Cc1cc(Cl)ccc1OCC(=O)O
classAssignment: inactive

GET /call?item= "BrCCBr" returns the recorded outcome of this test.
active

GET /call?item= "COS(C)(=O)=O" returns the recorded outcome of this test.
active

GET /call?item= "Nc1ccccc1" returns the recorded outcome of this test.
inactive

* * *

system: CCRIS mutagenicity, Ames/micronucleus/aberration tests; experiment: CCRIS mutagenicity studies; conditions: Test System: AMES SALMONELLA TYPHIMURIUM; Strain/Indicator: TA100; Metabolic Activation: NONE; Method: STANDARD PLATE
The source made the active and inactive calls. How the calls were made is not given here.
Would you mind answering with one of these outcomes? y (active), n (inactive)

compound: Cc1ccc(NC(=O)c2csc([N+](=O)[O-])c2)cc1
classAssignment: y

compound: CC1=C(/C=C/C(C)=C/C=C/C(C)=C/C=C/C=C(C)/C=C/C=C(C)/C=C/C2=C(C)C(=O)CCC2(C)C)C(C)(C)CCC1=O
classAssignment: n

compound: ONc1ccc(Oc2ccccc2)cc1
classAssignment: y

compound: Cc1cc(-c2ccccc2)cc(C)c1N
classAssignment: n

compound: O=C1O[C@H]([C@@H](O)CO)C(O)=C1O
classAssignment: n

GET /call?item= CCC1CCC(CCC(=O)[O-])C1.CCC1CCC(CCC(=O)[O-])C1.[Co+2] (stereo not given) returns the recorded outcome of this test.
n

GET /call?item= C=CC(=O)N(CC1CO1)CC1CO1 (stereo not given) returns the recorded outcome of this test.
y

GET /call?item= "COO" returns the recorded outcome of this test.
n

GET /call?item= "O=CC(=O)c1ccccc1" returns the recorded outcome of this test.
y

GET /call?item= CC(O)CN(C)c1ccc(NN)nn1 (stereo not given) returns the recorded outcome of this test.
n

* * *

tested on: CCRIS mutagenicity, Ames/micronucleus/aberration tests; experiment: CCRIS mutagenicity studies; conditions: Test System: AMES SALMONELLA TYPHIMURIUM; Strain/Indicator: TA98; Metabolic Activation: NONE; Method: PREINCUBATION
The source made the active and inactive calls. No rule for the calls is given here.
Would you mind answering with one of these outcomes? active, inactive

Worked examples, 5 molecules total:
molecule: CCCCCCCCc1ccc(Nc2ccc(CCCCCCCC)cc2)cc1
assaySystem: CCRIS mutagenicity, Ames/micronucleus/aberration tests
classAssignment: inactive
--
molecule: CC(CO)(CO)CO
assaySystem: CCRIS mutagenicity, Ames/micronucleus/aberration tests
classAssignment: inactive
--
molecule: CC(C)CN(CC(C)C)CC(C)C
assaySystem: CCRIS mutagenicity, Ames/micronucleus/aberration tests
classAssignment: inactive
--
molecule: Nc1cccc2nc3ccccc3nc12
assaySystem: CCRIS mutagenicity, Ames/micronucleus/aberration tests
classAssignment: active
--
molecule: O[C@@H]1[C@@H]2O[C@@H]2c2c(ccc3cc4ccc5ccccc5c4nc23)[C@H]1O
assaySystem: CCRIS mutagenicity, Ames/micronucleus/aberration tests
classAssignment: active

GET /call?item= "Cc1c2ccccc2c(COS(=O)(=O)O)c2ccc3ccccc3c12" returns the recorded outcome of this test.
active

GET /call?item= "CCCC(=O)O" returns the recorded outcome of this test.
inactive

GET /call?item= O=[N+]([O-])c1ccc2ccc3cccc4c3c2c1C1OC41 (configuration not stated) returns the recorded outcome of this test.
active

GET /call?item= "Cc1cc(-c2ccc(N=C=O)c(C)c2)ccc1N=C=O" returns the recorded outcome of this test.
inactive

GET /call?item= "Cc1ccc2cc3ccc4ccccc4c3nc2c1" returns the recorded outcome of this test.
inactive

GET /call?item= CCCC(C)(COC(N)=O)COC(=O)NC(C)C (configuration not stated) returns the recorded outcome of this test.
inactive

GET /call?item= "O.[Al+3].[Al+3].[Na+].[Na+].[O-2].[O-2].[O-2].[O-2].[O-2].[O-2].[Si+4]" returns the recorded outcome of this test.
inactive

GET /call?item= "Cc1cc(-c2ccc(N/N=C3\C(=O)c4c(O)cc(S(=O)(=O)O)cc4C=C3S(=O)(=O)O)c(C)c2)ccc1N/N=C1\C(=O)c2c(O)cc(S(=O)(=O)O)cc2C=C1S(=O)(=O)O" returns the recorded outcome of this test.
inactive

GET /call?item= "Cn1c(N)nc2c3ccc(=O)[nH]c3ccc21" returns the recorded outcome of this test.
active

GET /call?item= "O=Cc1ccccc1" returns the recorded outcome of this test.
inactive

GET /call?item= "OC[C@H](O)CCl" returns the recorded outcome of this test.
inactive

GET /call?item= CC(C)CCC(C)Nc1ccc(NC(C)CCC(C)C)cc1 (configuration not stated) returns the recorded outcome of this test.
inactive

GET /call?item= "COc1nncc2ncccc12" returns the recorded outcome of this test.
inactive

GET /call?item= "CCn1c2ccccc2c2cc(N)ccc21" returns the recorded outcome of this test.
inactive

GET /call?item= "NNc1nncc2ncccc12" returns the recorded outcome of this test.
active

GET /call?item= "C=C(C)C(=O)OCCN(C)C" returns the recorded outcome of this test.
inactive

GET /call?item= "C1=C\CC/C=C\CC/1.C1=C\CC/C=C\CC/1.[Ni]" returns the recorded outcome of this test.
inactive
